# SYSTEM: EGFR(D770_N771insSVD) expressing Ba/F3 stable cell line (Homo sapiens, UniProt P00533, DUP768-770, cells depend on it)
# Sequence (P00533 with tags, fused parts or gaps DUP768-770): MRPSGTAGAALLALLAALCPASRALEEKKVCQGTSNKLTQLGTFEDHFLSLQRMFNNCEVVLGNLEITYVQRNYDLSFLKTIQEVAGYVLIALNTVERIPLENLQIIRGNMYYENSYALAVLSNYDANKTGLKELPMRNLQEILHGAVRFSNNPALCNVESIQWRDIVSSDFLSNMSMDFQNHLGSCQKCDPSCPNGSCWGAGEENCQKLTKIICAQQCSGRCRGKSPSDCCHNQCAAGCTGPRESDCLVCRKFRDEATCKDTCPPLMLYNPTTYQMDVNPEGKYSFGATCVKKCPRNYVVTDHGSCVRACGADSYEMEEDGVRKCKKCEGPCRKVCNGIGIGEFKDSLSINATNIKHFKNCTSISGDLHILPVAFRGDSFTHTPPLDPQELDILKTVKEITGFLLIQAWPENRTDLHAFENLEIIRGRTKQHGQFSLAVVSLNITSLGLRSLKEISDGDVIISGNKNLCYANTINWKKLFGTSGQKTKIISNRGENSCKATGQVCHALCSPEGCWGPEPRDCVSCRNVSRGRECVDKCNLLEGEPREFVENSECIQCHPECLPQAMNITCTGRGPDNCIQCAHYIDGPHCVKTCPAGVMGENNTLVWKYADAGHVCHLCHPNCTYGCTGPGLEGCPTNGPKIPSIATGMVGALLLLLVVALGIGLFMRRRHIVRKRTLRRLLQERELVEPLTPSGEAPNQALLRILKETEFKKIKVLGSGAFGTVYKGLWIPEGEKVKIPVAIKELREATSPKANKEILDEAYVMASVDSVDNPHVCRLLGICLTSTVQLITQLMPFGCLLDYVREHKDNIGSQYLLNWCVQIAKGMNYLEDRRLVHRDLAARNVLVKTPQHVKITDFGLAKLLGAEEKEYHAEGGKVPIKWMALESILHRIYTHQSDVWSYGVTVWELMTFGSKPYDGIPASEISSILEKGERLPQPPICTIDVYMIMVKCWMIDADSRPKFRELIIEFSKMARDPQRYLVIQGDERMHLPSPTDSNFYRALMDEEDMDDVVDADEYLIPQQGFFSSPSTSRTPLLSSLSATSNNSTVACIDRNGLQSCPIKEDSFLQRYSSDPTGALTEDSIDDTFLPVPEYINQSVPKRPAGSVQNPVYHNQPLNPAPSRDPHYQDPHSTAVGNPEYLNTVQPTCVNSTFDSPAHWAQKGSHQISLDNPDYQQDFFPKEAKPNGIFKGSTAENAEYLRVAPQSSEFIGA
# PROCEDURE_TEXT: Cellular proliferation (Alamar Blue) assay, EGFR D770_N771insSVD Ba/F3
# Format: cell-based
# MEASUREMENT_SETUP: 72 hr, read-out: D770 IC50
Counter-ions that a name gives are not always drawn.
METRIC_NAME: GI50

Field: example entries. Status: answers known.
> print(dat)
                                   compound  assay.result
1  C=CC(=O)Nc1ccc(F)c(Nc2nc(Nc3cnn(C)c3)ncc2-c2cncs2)c1 [Compound 230]         63 nM
2  C=CC(=O)Nc1cccc(Nc2nc(Nc3cnn(C)c3)nc(NC)c2-c2ccc(C(F)(F)F)cc2)c1 [Compound 224]    > 10000 nM
3  C=CC(=O)Nc1cccc(Oc2nc(Nc3cnn(C)c3)ncc2-c2ccc(C(F)F)nc2)c1 [Compound 187]         40 nM
4  C=CC(=O)Nc1ccc(F)c(Nc2nc(Nc3cnn(C)c3)ncc2C#Cc2ccccc2)c1 [Compound 161]        288 nM
5  C=CC(=O)Nc1cccc(Nc2nc(Nc3cnn(C)c3)ncc2-c2ccc(OC(F)F)cc2)c1 [Compound 142, trifluoroacetate]         16 nM
6  C=CC(=O)Nc1ccc(F)c(Nc2nc(Nc3cnn(C)c3)ncc2-c2cccc(Br)c2)c1 [Compound 201]        270 nM

Here is the next item to consider.
Query string: Identify measured GI50 corresponding to C=CC(=O)Nc1ccc(F)c(Nc2nc(Nc3cnn(C)c3)ncc2-c2ccc(C(F)(F)C(F)(F)F)cc2)c1 [Compound 296]
Result string: 84 nM

----------
# SYSTEM: EGFR (A767_dupASV) expressing Ba/F3 stable cell line (Homo sapiens, UniProt P00533, DUP767-769, cells depend on it)
# Sequence (P00533 with tags, fused parts or gaps DUP767-769): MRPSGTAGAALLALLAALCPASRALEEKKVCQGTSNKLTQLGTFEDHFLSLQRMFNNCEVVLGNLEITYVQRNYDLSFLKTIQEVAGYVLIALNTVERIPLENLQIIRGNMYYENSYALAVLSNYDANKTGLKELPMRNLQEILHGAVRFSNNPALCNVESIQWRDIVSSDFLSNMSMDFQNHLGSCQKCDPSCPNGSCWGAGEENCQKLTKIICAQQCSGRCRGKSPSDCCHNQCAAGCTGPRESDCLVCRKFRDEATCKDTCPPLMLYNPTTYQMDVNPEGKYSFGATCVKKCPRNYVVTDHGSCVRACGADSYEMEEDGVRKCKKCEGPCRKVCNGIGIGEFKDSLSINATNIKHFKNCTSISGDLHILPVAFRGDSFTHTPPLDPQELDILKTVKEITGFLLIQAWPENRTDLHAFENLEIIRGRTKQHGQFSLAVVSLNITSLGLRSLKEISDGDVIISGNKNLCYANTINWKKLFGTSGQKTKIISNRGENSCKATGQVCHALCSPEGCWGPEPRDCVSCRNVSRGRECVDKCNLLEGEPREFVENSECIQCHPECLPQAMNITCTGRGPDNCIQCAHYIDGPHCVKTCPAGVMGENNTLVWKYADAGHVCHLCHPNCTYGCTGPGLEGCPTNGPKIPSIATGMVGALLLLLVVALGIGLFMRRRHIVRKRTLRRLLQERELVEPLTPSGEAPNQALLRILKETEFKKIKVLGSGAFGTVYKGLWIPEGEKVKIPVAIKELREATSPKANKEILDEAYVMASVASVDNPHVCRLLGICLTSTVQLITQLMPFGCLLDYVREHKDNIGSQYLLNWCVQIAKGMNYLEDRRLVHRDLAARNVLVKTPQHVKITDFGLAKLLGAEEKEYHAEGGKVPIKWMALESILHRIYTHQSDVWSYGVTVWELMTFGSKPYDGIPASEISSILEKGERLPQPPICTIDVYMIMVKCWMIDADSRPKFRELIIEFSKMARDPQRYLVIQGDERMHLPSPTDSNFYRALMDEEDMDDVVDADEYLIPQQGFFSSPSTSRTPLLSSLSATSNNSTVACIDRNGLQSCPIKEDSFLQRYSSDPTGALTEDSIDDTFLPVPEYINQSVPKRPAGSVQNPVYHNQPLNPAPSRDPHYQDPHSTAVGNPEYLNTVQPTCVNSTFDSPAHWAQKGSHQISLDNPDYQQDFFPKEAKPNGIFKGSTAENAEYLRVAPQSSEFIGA
# PROCEDURE_TEXT: Cellular proliferation (Alamar Blue) assay, EGFR A767_dupASV Ba/F3
# Assay type: cell-based
# MEASUREMENT_SETUP: 72 hr, read-out: A767 IC50
METRIC_NAME: log10(GI50) (log10 of the value in nM)
Short version: log10 scale, GI50, nM.

Field: example entries. Status: answers known.
> print(dat)
                           smiles.structure  metric.name  assay.result
1  C=CC(=O)Nc1ccc(F)c(Nc2nc(Nc3cnn(C)c3)ncc2-c2ccc(OC)cc2)c1  log10(GI50)          2.03
2  C=CC(=O)Nc1ccc(C(F)(F)F)c(Oc2nc(Nc3cnn(C)c3)ncc2Cl)c1  log10(GI50)          3.95
3  C=CC(=O)Nc1ccc(F)c(Nc2nc(Nc3cnn(C)c3)ncc2-c2ccc(C3(C(F)(F)F)CC3)cc2)c1  log10(GI50)          1.90
4  C=CC(=O)Nc1ccc(F)c(Nc2nc(Nc3cnn(C)c3)ncc2-c2cncc(C)c2)c1  log10(GI50)          1.56
5  C=CC(=O)Nc1ccc(F)c(Nc2nc(Nc3cnn(C)c3)nnc2Cl)c1  log10(GI50)          3.39
6  C=CC(=O)Nc1ccc(F)c(Nc2nc(Nc3cnn(C)c3)ncc2C2=CCN(C)CC2)c1  log10(GI50)          2.98

Here is the next item to consider.
Query string: Identify measured log10(GI50) corresponding to C=CC(=O)Nc1ccc(F)c(Nc2nc(Nc3cnn(C)c3)ncc2-c2ccc(S(N)(=O)=O)cc2)c1
Result string: 3.46

----------
# SYSTEM: HER2 (A775_G776insYVMA) expressing Ba/F3 stable cell line (Homo sapiens, UniProt P04626, DUP772-775, cells depend on it)
# Sequence (P04626 with tags, fused parts or gaps DUP772-775): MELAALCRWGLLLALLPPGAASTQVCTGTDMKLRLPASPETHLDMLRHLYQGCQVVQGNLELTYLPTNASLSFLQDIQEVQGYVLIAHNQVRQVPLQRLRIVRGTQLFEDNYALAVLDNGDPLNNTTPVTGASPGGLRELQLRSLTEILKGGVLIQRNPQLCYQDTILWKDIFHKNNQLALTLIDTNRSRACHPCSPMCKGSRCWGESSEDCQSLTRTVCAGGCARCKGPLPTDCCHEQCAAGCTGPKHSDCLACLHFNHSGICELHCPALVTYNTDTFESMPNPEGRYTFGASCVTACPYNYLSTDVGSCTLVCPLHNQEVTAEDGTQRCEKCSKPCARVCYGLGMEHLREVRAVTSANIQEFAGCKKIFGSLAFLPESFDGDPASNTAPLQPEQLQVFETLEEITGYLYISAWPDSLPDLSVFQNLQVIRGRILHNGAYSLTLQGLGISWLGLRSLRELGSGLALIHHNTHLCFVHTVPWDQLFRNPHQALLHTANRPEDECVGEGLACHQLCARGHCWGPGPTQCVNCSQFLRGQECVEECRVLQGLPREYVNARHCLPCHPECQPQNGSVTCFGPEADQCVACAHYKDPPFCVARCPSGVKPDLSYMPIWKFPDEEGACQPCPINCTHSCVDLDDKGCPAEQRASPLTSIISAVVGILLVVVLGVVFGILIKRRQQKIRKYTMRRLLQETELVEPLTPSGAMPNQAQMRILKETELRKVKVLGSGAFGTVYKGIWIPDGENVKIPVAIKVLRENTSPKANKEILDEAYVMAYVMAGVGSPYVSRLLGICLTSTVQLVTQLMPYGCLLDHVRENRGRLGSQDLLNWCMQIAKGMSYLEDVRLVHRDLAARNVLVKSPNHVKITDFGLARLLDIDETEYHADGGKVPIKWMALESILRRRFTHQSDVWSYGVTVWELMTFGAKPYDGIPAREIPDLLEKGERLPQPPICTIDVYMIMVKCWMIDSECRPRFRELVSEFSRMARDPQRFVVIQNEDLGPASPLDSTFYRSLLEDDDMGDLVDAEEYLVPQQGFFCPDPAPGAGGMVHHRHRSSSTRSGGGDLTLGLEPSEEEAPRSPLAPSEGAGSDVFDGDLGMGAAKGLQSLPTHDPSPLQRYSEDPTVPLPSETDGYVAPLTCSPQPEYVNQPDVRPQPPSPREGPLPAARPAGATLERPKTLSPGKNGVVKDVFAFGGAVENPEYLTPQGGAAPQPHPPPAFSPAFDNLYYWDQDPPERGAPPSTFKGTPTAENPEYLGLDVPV
# PROCEDURE_TEXT: Cellular proliferation (Alamar Blue) assay, HER2 A775_G776insYVMA Ba/F3
# Format: cell-based
# MEASUREMENT_SETUP: 72 hr, read-out: YVMA IC50
Listed next: entries and their corresponding log10(GI50).
Short version: log10 scale, GI50, nM.

Field: example entries. Status: answers known.
> print(dat)
                           smiles.structure  assay.result
1  C=CC(=O)Nc1ccc(F)c(Nc2nc(Nc3cnn(C(C)(C)C#N)c3)ncc2Br)c1          3.33
2  C=CC(=O)Nc1ccc(F)c(Nc2nc(Nc3cnn(C)c3)ncc2-c2cccc(C(=O)NC)c2)c1          3.82

Query string: Identify measured log10(GI50) corresponding to C=CC(=O)Nc1ccc(F)c(Nc2nc(Nc3cnn(C4COC4)c3)ncc2-c2ccc(C(F)(F)F)cc2)c1
Result string: 2.84

Query string: Identify measured log10(GI50) corresponding to C=CC(=O)Nc1ccc(F)c(Nc2nc(Nc3cnn(C(C)(C)C#N)c3)ncc2-c2ccc(C(F)(F)F)cc2)c1
Result string: 3.32

Query string: Identify measured log10(GI50) corresponding to C=CC(=O)Nc1cc(Br)cc(Nc2nc(Nc3cnn(C)c3)ncc2-c2ccc(CC(F)(F)F)cc2)c1
Result string: 2.81

Query string: Identify measured log10(GI50) corresponding to C=CC(=O)Nc1cc(Nc2nc(Nc3cnn(C)c3)ncc2Cl)cc(C(F)(F)F)c1
Result string: 3.26

Query string: Identify measured log10(GI50) corresponding to C=CC(=O)Nc1ccc(F)c(Nc2nc(Nc3cnn(C)c3)ncc2-c2cccc3ncccc23)c1
Result string: 3.65

----------
Listed next: entries and their corresponding GI50.
# SYSTEM: EGFR(D770_N771insSVD) expressing Ba/F3 stable cell line (Homo sapiens, UniProt P00533, DUP768-770, cells depend on it)
# PROCEDURE_TEXT: Cellular proliferation (Alamar Blue) assay, EGFR D770_N771insSVD Ba/F3
# Assay type: cell-based
# MEASUREMENT_SETUP: 72 hr, read-out: D770 IC50
Counter-ions that a name gives are not always drawn.
State the answer as a number, implicitly in nM.

> print(dat)
                                   molecule  assay.result
1  C=CC(=O)Nc1ccc(F)c(Nc2nc(Nc3cnn(C)c3)ncc2-c2ccc(C3(C(F)(F)F)CC3)cc2)c1           100
2  C=CC(=O)Nc1ccc(F)c(Nc2nc(Nc3ccccc3OC)ncc2-c2ccc(C(F)(F)F)cc2)c1 [Compound 39, trifluoroacetate]          3040

Here is the next item to consider.
Query string: Identify measured GI50 corresponding to C=CC(=O)Nc1ccc(F)c(Nc2nc(Nc3cnn(C)c3)ncc2-c2ccc3cccnc3c2)c1
Result string: 202

----------
# SYSTEM: EGFR (A767_dupASV) expressing Ba/F3 stable cell line (Homo sapiens, UniProt P00533, DUP767-769, cells depend on it)
# PROCEDURE_TEXT: Cellular proliferation (Alamar Blue) assay, EGFR A767_dupASV Ba/F3
# Assay type: cell-based
# MEASUREMENT_SETUP: 72 hr, read-out: A767 IC50
METRIC_NAME: GI50 (nM)
State the answer as a number, implicitly in nM.

Field: example entries. Status: answers known.
> print(dat)
                                   compound  result.units  assay.result
1  Cn1cc(Nc2ncc(-c3ccc(C(F)(F)F)cc3)c(Nc3cc(NC(=O)CCl)ccc3F)n2)cn1 [Compound 252]            nM          5960
2  C=CC(=O)Nc1ccc(F)c(Nc2nc(Nc3cnn(C)c3)ncc2-c2ccc(C)nc2)c1 [Compound 66]            nM            35

Query string: Identify measured GI50 corresponding to C=CC(=O)Nc1ccc(F)c(Nc2nc(Nc3cnn(C4COC4)c3)ncc2-c2ccc(Br)cc2)c1 [Compound 205]
Result string: 73

----------
Listed next: entries and their corresponding pIC50.
# System: A431 cells
# PROCEDURE_TEXT: Cellular proliferation (Alamar Blue) assay, A431
# Format: cell-based
# MEASUREMENT_SETUP: Homo sapiens, A-431; A431 cells, 72 hr, Alamar Blue; read-out: A431 IC50
// pIC50 is dimensionless: -log10 of concentration (M)

> print(dat)
                           smiles.structure  assay.result
1  C=CC(=O)Nc1ccc(F)c(Nc2nc(Nc3cnn(C4COC4)c3)ncc2-c2ccc(Br)cc2)c1          6.88

Query string: Identify measured pIC50 corresponding to C=CC(=O)Nc1cccc(Oc2nc(Nc3cnn(CCN(C)C)c3)ncc2-c2ccc(C(F)(F)F)cc2)c1
Result string: 5.97

Query string: Identify measured pIC50 corresponding to C=CC(=O)Nc1cc(F)cc(Nc2nc(Nc3cnn(C)c3)ncc2-c2ccc(C(F)(F)F)cc2)c1
Result string: 6.64

Query string: Identify measured pIC50 corresponding to C=CC(=O)Nc1ccc(Cl)c(Nc2nc(Nc3cnn(C)c3)ncc2-c2ccc(Br)cc2)c1
Result string: 5.99

Query string: Identify measured pIC50 corresponding to C=CC(=O)Nc1ccc(F)c(Nc2nc(Nc3cnn(C)c3)ncc2-c2ccc(Oc3cccc(F)c3)cc2)c1
Result string: 6.64

Query string: Identify measured pIC50 corresponding to C=CC(=O)Nc1ccc(F)c(N(C)c2nc(Nc3cnn(C)c3)ncc2-c2ccc(C(F)(F)F)cc2)c1
Result string: 5.39

Query string: Identify measured pIC50 corresponding to C=CC(=O)Nc1cccc(Oc2nc(Nc3cn(C)nc3Cl)ncc2-c2ccc(C(F)(F)F)cc2)c1
Result string: 6.58

Query string: Identify measured pIC50 corresponding to C=CC(=O)Nc1ccc(F)c(Nc2nc(Nc3cccnc3)ncc2-c2ccc(C(F)(F)F)cc2)c1
Result string: 6.27

Query string: Identify measured pIC50 corresponding to C=CC(=O)Nc1ccc(F)c(Nc2nc(Nc3cnn(C)c3)ncc2-c2ccc(OCc3cccc(F)c3)cc2)c1
Result string: 6.56

Query string: Identify measured pIC50 corresponding to [2H]C([2H])=CC(=O)Nc1ccc(F)c(Nc2nc(Nc3cnn(C)c3)ncc2-c2ccc(Br)cc2)c1
Result string: 7.19

Query string: Identify measured pIC50 corresponding to C=CC(=O)Nc1ccc(F)c(Nc2nc(Nc3cnn(C)c3)ncc2-c2ccccc2N(C)C)c1
Result string: 5.24

Query string: Identify measured pIC50 corresponding to C=CC(=O)Nc1ccc(F)c(Nc2nc(Nc3cn(CCO)nc3Cl)ncc2-c2ccc(C(F)(F)F)cc2)c1
Result string: 6.98

The origin of these recorded values is patent US12686673B2.
